# experimental_details: Confirmation Concentration-Response Assay for lipid storage modulators; note: nearly all actives have a fitted effect of over 80% in size
# condition_details: Drosophila S3 cells, lipid droplet BODIPY/CellTracker ratio, 18-24 h; series mostly up to 46.1 µM
Inconclusive results are not listed. Calls of active or inactive are those of the source. Calls come from the whole dose curve; as a rule, active = well fitted inhibition curve with a large enough effect; inconclusive = small, poorly fitted or top-dose-only effect, or effect the other way, or another doubt; inactive = no such curve, though single readings can be large or run the other way.
Classes used: active, inactive

>>> label("CCCCc1c(O)nc(SCC(=O)NCCc2ccc(OC)c(OC)c2)[nH]c1=O")
"inactive"
>>> label("CC1CCN(C(=O)C2(NC(=O)Nc3cccc(F)c3)CCCCC2)CC1")
"active"
>>> label("COc1ccc(/C=C(/NC(=O)c2cccs2)C(=O)Nc2ccc(C)cc2)cc1OC")
"active"
>>> label("CCOc1ccc(CCNC(=O)COC(=O)c2ccc3c(c2)OCCO3)cc1OCC")
"active"
>>> label("c1ccc(-c2csc3ncnc(NCC4COc5ccccc5O4)c23)cc1 (centres undefined)")
"active"
>>> label("CCOc1ccc(CCNC(=O)COC(=O)COc2cc(C)cc(C)c2)cc1OCC")
"inactive"
>>> label("CCCCCCCCCCCCCCCC[n+]1cccc2ccccc21")
"active"
>>> label("CCOC(=O)C1CCN(C(=O)C2(NC(=O)NC3CCCCC3)CCCCC2)CC1")
"active"
>>> label("COc1ccc(CCNC(=O)COc2ccc(-c3ccccc3)cc2)cc1OC")
"inactive"

###

# experimental_details: Confirmation Concentration-Response Assay for lipid storage modulators; note: nearly all actives have a fitted effect of over 80% in size
# condition_details: Drosophila S3 cells, lipid droplet BODIPY/CellTracker ratio, 18-24 h; series mostly up to 46.1 µM
Records with an inconclusive call do not appear. The source made the active and inactive calls. Calls come from the whole dose curve; as a rule, active = well fitted inhibition curve with a large enough effect; inconclusive = small, poorly fitted or top-dose-only effect, or effect the other way, or another doubt; inactive = no such curve, though single readings can be large or run the other way.
Possible outcomes: active, inactive

>>> label("COc1cc(NC(=O)COc2ccccc2[N+](=O)[O-])ccc1NC(=O)c1cccs1")
"active"
>>> label("C[C@@H]1NS(=O)(=O)[C@H]2C[C@@H]3C=C[C@]2(O3)[C@H]1OC(=O)c1ccccc1Br")
"inactive"
>>> label("COc1ccc(CCNC(=O)COc2cc(O)c3c(c2)OC(C)(C)CC3=O)cc1OC")
"inactive"
>>> label("CC1CCCCN1c1ccc(N)cc1C(N)=O (stereo unspecified)")
"inactive"
>>> label("COc1ccc(CCNC(=O)CSc2nnc(-c3ccccc3)c3ccccc23)cc1OC")
"active"
>>> label("CCN(CC(=O)Nc1c(F)cccc1F)C(=O)CCCc1c[nH]c2ccccc12")
"active"
>>> label("CCOC(=O)C1CCN(C(=O)C2(NC(=O)Nc3ccccc3Cl)CCCCC2)CC1")
"active"
>>> label("COc1ccc(CCNC(=O)c2ccccc2-c2ccccc2C(=O)O)cc1OC")
"inactive"
>>> label("CC(C)OC(=O)c1cc2c(ccn2C)n1CC(=O)N(Cc1ccccc1)c1ccccc1")
"active"
>>> label("O=C(NC1CCCc2c1cnn2-c1ccc(F)cc1F)c1ccccn1 (stereo unspecified)")
"active"
>>> label("Cc1ccc(NCc2ccc(O)c3ncccc23)cc1")
"inactive"
>>> label("COc1ccc(-c2nc(C)ncc2N=Nc2ccccc2)cc1")
"active"
>>> label("O=C(Nc1ccc(S(=O)(=O)N2CCCC2)cc1)c1ccc(CN2CCc3ccccc3C2)cc1")
"active"
>>> label("CCOC(=O)c1c(C)[nH]c(C(=O)OCC(=O)NCCc2ccc(OCC)c(OCC)c2)c1C")
"active"
>>> label("CCCOc1ccc2oc(=O)c3c(c2c1)CCCN3C(=O)CN1CCN(C(=O)c2ccco2)CC1")
"active"
>>> label("CCOc1ccc(CCNC(=O)COC(=O)/C=C/c2ccc(OCC#N)c(OC)c2)cc1OCC")
"active"
>>> label("c1ccc(CNc2ncnc3ccccc23)cc1")
"active"
>>> label("COc1ccc2c(c1)c1nnc(SCC(=O)N3C(C)CCCC3C)nc1n2C (stereo unspecified)")
"active"
>>> label("CCN1CCN(Cc2ccc(NC(=O)c3ccc(C)c(NC(=O)c4c[nH]c5cc(C(F)(F)F)ccc5c4=O)c3)cc2C(F)(F)F)CC1")
"active"
>>> label("Cc1ccc(S(=O)(=O)NCCC2=CCCCC2)cc1C(N)=O")
"active"
>>> label("CCOC(=O)C1CCN(C(=O)C2(NC(=O)Nc3cccc(F)c3)CCCCC2)CC1")
"active"
